System: β-galactosidase in CMV-LacZ C2C12 myoblasts
PROTOCOL_DESCRIPTION: CMV-LacZ secondary screen in C2C12 myoblasts (β-Gal stabilizing assay)
Assay type: cell-based, mouse
EXPERIMENTAL_SETUP: 20 uM; CMV-LacZ C2C12 myoblasts
Would you mind labelling by CMV-LACZ in Myoblasts (β-galactosidase activity relative to DMSO)? At or over 0.9 is Y, under is N.

COMPOUND | CLASS_NAME
CCOC(=O)C1=C(CC)Nc2ccccc2N=C1NC(=O)c1ccc(OC)c(S(=O)(=O)N2CCCCC2C)c1 (centres unmarked) | Y
O=C(CSc1nnc2c(n1)[nH]c1ccccc12)NCc1ccccc1F | N
c1ccc(-c2cn3c4c(sc3n2)CCCC4)cc1 | Y
CCCS(=O)(=O)c1nc(S(=O)(=O)c2ccc(C)cc2)c(N2CCCC2)s1 | N
CCOc1cc(C)c(S(=O)(=O)N2CCCCC2)cc1C | N

Attribution: patent US9980943B2
